# tgt: N. fowleri CYP51 (Naegleria fowleri, UniProt A0A6A5BCR7, E4K/I5A/S2A, form not given)
# Format: binding
# test-conditions: Type I spectral response, ~2 μM P450
outcome-measure: low- to high-spin state transition in the heme iron (%)

# smiles-text, experimental-value
records = [
    ("CC(C)=CCC[C@@H](C)[C@H]1CC[C@@]2(C)C3=C(CC[C@]12C)[C@@]1(C)CC[C@H](O)C(C)(C)[C@@H]1CC3", 70),
    ("CC(C)=CCC[C@@H](C)[C@H]1CC[C@@]2(C)C3=C(CC[C@]12C)[C@@]1(C)CC[C@H](O)[C@H](C)[C@@H]1CC3", 94),
    ("CC(C)=CCC[C@@H](C)[C@H]1CC[C@@]2(C)[C@@H]3CC[C@H]4C(C)(C)[C@@H](O)CC[C@@]45C[C@@]35CC[C@]12C", 25),
    ("C=C(CC[C@@H](C)[C@H]1CC[C@@]2(C)C3=C(CC[C@]12C)[C@@]1(C)CC[C@H](O)[C@@H](C)[C@@H]1CC3)C(C)C", 90),
]

* * *

# tgt: N. fowleri CYP51 (Naegleria fowleri, UniProt A0A6A5BCR7, E4K/I5A/S2A, form not given)
outcome-measure: concentration giving complete inhibition of N. fowleri CYP51 activity (µM)

# molecule, experimental-value
rows = [
    ("O=C(N[C@@H](Cn1ccnc1)c1c(F)cc(-c2ccc(F)cc2)cc1F)c1ccc(-c2nnc(-c3ccccc3)o2)cc1 [F-VFV]", 3.0),
    ("O=C(N[C@@H](Cn1ccnc1)c1ccc(-c2ccc(F)cc2)cc1F)c1ccc(-c2nnc(-c3ccccc3)o2)cc1 [VFV]", 6.0),
    ("O=C(N[C@@H](Cn1ccnc1)c1ccc(Cl)cc1Cl)c1ccc(-c2nnc(-c3ccccc3)o2)cc1 [VNI]", 50),
]
